target: T1, mouse TF ECD-His6 (mouse, UniProt P20352 29-251); experiment: BLI (ForteBio Octet)
T1 construct: made in Expi293 cells; also called TF-His; mTF
MEASURED ATTRIBUTE: Kd (nM)
Kindly provide the numeric value in nM only, without the unit symbol.

I am curious: what Kd value has been reported for 25G9 (antibody, human IgG1, kappa, V domains shown, human IgG1) VH: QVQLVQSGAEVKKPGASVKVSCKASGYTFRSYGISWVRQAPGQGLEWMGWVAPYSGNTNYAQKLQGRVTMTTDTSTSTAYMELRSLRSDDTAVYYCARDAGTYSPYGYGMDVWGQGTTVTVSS VL: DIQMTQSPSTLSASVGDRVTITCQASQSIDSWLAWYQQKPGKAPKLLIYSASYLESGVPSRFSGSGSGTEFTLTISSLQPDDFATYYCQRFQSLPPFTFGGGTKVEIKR ?
9.16

Follow-up item: 25A (antibody, human IgG1, V domains shown, human IgG1) VH: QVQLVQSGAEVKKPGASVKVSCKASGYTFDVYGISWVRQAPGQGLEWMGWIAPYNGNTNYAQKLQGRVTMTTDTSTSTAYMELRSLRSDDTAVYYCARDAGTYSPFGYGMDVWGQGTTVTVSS VL: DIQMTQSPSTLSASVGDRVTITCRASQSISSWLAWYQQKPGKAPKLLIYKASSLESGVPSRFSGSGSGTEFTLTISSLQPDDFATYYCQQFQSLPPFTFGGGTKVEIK
263
